# measured_target: UniProt:O31806
# Sequence (O31806 1-144): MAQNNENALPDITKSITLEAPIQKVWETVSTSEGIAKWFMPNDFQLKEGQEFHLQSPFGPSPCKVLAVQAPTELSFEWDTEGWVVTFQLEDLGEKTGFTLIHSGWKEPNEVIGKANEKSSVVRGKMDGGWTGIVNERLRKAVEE
pKd: −log10 of the molar value.
measurement_name: pKd

molecule	measurement_name	observed_measurement
O=c1cc(-c2ccccc2)oc2ccccc12 [flavone]	pKd	4.21
O=c1c(O)c(-c2ccccc2)oc2ccccc12 [flavonol]	pKd	4.07
O=C1CC(c2ccccc2)Oc2ccccc21 (stereo not shown) [flavanone]	pKd	4.49
